System: CP256
Assay: qHTS profiling for inhibitors of Plasmodium falciparum proliferation (AID 504749); note: nearly all actives have a fitted effect of over 60% in size
Settings: P. falciparum in erythrocytes, SYBR Green DNA, 72 h; series mostly up to 28.7 µM
Protocol: NIH National Institute of Allergy and Infectious Diseases [NIAID] NIH Chemical Genomics Center [NCGC] […] Because mature erythrocytes lack DNA, only Plasmodium-derived DNA is detected. NCGC Assay Protocol Summary: The SYBR Green viability assay was adapted from a method described previously (Plouffe et al., 2008). […] The following morning, fluorescence intensity at 485(14) nm excitation and 535(25) nm emission wavelengths was measured on an EnVision (Perkin Elmer) plate reader. […]
Results filed as inconclusive are left out. The source made the active and inactive calls. Calls come from the whole dose curve; as a rule, active = well fitted inhibition curve with a large enough effect; inconclusive = small, poorly fitted or top-dose-only effect; inactive = flat fitted curve, though single readings scatter.
Classes to choose from: T for active, F for inactive

Assay result, entry NC(=O)NC(CCC(=O)O)C(=O)O (stereo not drawn) — outcome?
F

Assay result, entry C[C@]12C=CC(=O)N[C@@H]1CC[C@@H]1C2CC[C@]2(C)C(C(=O)Nc3cc(C(F)(F)F)ccc3C(F)(F)F)CC[C@@H]12 (stereo partly drawn) — outcome?
F

Assay result, entry Cc1ccc(/C=C2/C(=O)C3(C)CCC2C3(C)C)cc1 (stereo not drawn) — outcome?
F

Assay result, entry COc1cc2c(cc1O)CCN[C@@]21CS[C@H]2c3c(OC(C)=O)c(C)c4c(c3C(COC1=O)N1C2C2c3c(cc(C)c(OC)c3O)CC([C@@H]1O)N2C)OCO4 (stereo partly drawn) — outcome?
T

Assay result, entry O=C1[C@@H]2C[C@@H]3C[C@H]1C[C@@](O)(C3)C2 — outcome?
F

Assay result, entry CC[C@]1([C@H]2O[C@@H]([C@@H]3O[C@](O)(CO)[C@@H](C)C[C@H]3C)C[C@H]2C)CC[C@@H]([C@]2(C)CC[C@@]3(C[C@@H](O)[C@@H](C)[C@@H]([C@H](C)[C@H](OC)[C@H](C)C(=O)O)O3)O2)O1 — outcome?
T

Assay result, entry C[C@H](O)[C@@H]1C(=O)N2C(C(=O)O)=C(SCCN=CN)C[C@@H]12 — outcome?
F

Assay result, entry C/C=C\C[C@H](C)[C@H](O)[C@H]1C(=O)N[C@@H](CC)C(=O)N(C)CC(=O)N(C)[C@@H](CC(C)C)C(=O)N[C@@H](C(C)C)C(=O)N(C)[C@@H](CC(C)C)C(=O)N[C@@H](C)C(=O)N[C@@H](C)C(=O)N(C)[C@@H](CC(C)C)C(=O)N(C)[C@@H](CC(C)C)C(=O)N(C)[C@@H](C(C)C)C(=O)N1C — outcome?
T

----------
molecular target: 3',5'-cyclic-AMP phosphodiesterase 4B (Homo sapiens); test: qHTS Assay for Inhibitors of PDE-IV (AID 607); details: HEK293 ACTOne CNG channel cells, membrane potential fluorescence; series mostly up to 22.9 µM
Inconclusive results are not listed. Active and inactive are the calls of the source. Calls follow the shape of the dose curve; as a rule, active = well fitted activation curve with a large enough effect in the main read-out, with a control signal flat (not every such curve was filed as active); inconclusive = small, poorly fitted or top-dose-only effect, or effect the other way, or a change in a side signal; inactive = flat fitted curve, though single readings scatter.
Classes to choose from: active, inactive

Assay result, entry CCCCCCCCCC(=O)N[C@@H](CN1CCOCC1)[C@@H](O)c1ccccc1 — outcome?
inactive

Assay result, entry NCCC[C@@H](CC(=O)N[C@@H]1CCCC[C@H]1C(=O)N[C@H](CC(=O)N[C@@H](CCC(=O)O)CC(=O)O)Cc1ccccc1)NC(=O)C[C@H](Cc1c[nH]c2ccccc12)NC(=O)[C@@H]1CNCC[C@H]1N — outcome?
active

Assay result, entry CC1=C(C(=O)OCc2ccccc2)C(c2ccc(Cl)cc2)NC(=O)N1CCCCCC(=O)O (stereo not given) — outcome?
inactive

Assay result, entry CC(C)c1cccc2nc3c(c([Si](C)(C)C)c12)Cn1c-3cccc1=O — outcome?
inactive

Assay result, entry COc1cc2oc(-c3ccccc3)cc(=O)c2cc1O — outcome?
inactive

Assay result, entry CC(C)[C@@H](CC(=O)N[C@@H]1CCNC[C@H]1C(=O)N[C@H](CC(=O)N[C@@H](CCC(=O)O)CC(=O)O)Cc1ccccc1)NC(=O)C[C@H](Cc1c[nH]c2ccccc12)NC(=O)[C@@H]1CCCC[C@H]1N — outcome?
inactive

Assay result, entry CC(C)[C@@H](CC(=O)N[C@@H]1CCCC[C@H]1C(=O)N[C@H](CC(=O)N[C@@H](CCC(=O)O)CC(=O)O)Cc1c[nH]c2ccccc12)NC(=O)C[C@H](Cc1ccccc1)NC(=O)[C@@H]1CNCC[C@H]1N — outcome?
inactive

Assay result, entry COC(=O)[C@@]1(Cc2ccc(OC)cc2)[C@H]2c3cc(C(=O)N4CCCC4)n(CCSCCO)c3C[C@H]2CN1C(=O)c1ccccc1 — outcome?
inactive

Assay result, entry C[C@@]1(C(NC(=O)Cc2ccc(C(F)(F)F)cc2)c2ccc(-c3ccccc3)cc2)C[C@H]1C1CCCCC1 (stereo not given in full) — outcome?
inactive

Assay result, entry CCCC[C@H]1C(=O)N(c2ccccc2)N(c2ccc(O)cc2)C1=O — outcome?
inactive

Assay result, entry CCCN1C[C@@H](CSC)C[C@H]2c3cccc4[nH]cc(c34)C[C@@H]21 — outcome?
inactive

Assay result, entry CCc1c2c(nc3cccc(C(C)C)c13)-c1cccc(=O)n1C2 — outcome?
inactive

Assay result, entry CC(=O)Oc1ccc(/C=C\C(=O)C[C@@H]2O[C@@H](Oc3cc(OC(C)=O)c4c(c3)O[C@@H](c3ccc(OC(C)=O)cc3)CC4=O)[C@H](OC(C)=O)[C@H](OC(C)=O)[C@@H]2OC(C)=O)cc1 — outcome?
inactive

Assay result, entry CC1(C)C(=O)C(c2ccccc2)=C2CN3C(=O)N(CCc4ccccc4)C(=O)C3(Cc3ccc(C(F)(F)F)cc3)C=C21 (stereo not given) — outcome?
inactive

Assay result, entry CCCC1(C(=O)OC)C=C2C(=C(c3ccccc3)C(=O)C2C)CN1 (stereo not given) — outcome?
inactive

----------
test system: CP265; assay: qHTS profiling for inhibitors of Plasmodium falciparum proliferation (AID 504749); note: nearly all actives have a fitted effect of over 60% in size; settings: P. falciparum in erythrocytes, SYBR Green DNA, 72 h; series mostly up to 28.7 µM
Inconclusive results are not listed. The source made the active and inactive calls. Calls follow the shape of the dose curve; as a rule, active = well fitted inhibition curve with a large enough effect; inconclusive = small, poorly fitted or top-dose-only effect; inactive = flat fitted curve, though single readings scatter.
Classes to choose from: True (active), False (inactive)

Assay result, entry C=C1C(=O)O[C@@H]2[C@@H]1CC/C(C)=C\CC[C@@]1(C)O[C@H]21 — outcome?
False

Assay result, entry CC1OC(OCC2OC(Oc3c(-c4ccc(OCCO)c(OCCO)c4)oc4cc(OCCO)cc(O)c4c3=O)C(O)C(O)C2O)[C@@H](O)C(O)C1O (some centres undefined) — outcome?
False

Assay result, entry C[C@@H]1CC2C3CCC4=CC(=O)C=C[C@]4(C)[C@@]3(F)[C@@H](O)C[C@]2(C)[C@@]1(O)C(=O)COC(=O)c1cccc(S(=O)(=O)O)c1 (some centres undefined) — outcome?
False

Assay result, entry C/C=C\C[C@H](C)[C@H](O)[C@H]1C(=O)N[C@@H](CC)C(=O)N(C)CC(=O)N(C)[C@@H](CC(C)C)C(=O)N[C@@H](C(C)C)C(=O)N(C)[C@@H](CC(C)C)C(=O)N[C@@H](C)C(=O)N[C@@H](C)C(=O)N(C)[C@@H](CC(C)C)C(=O)N(C)[C@@H](CC(C)C)C(=O)N(C)[C@@H](C(C)C)C(=O)N1C — outcome?
True

Assay result, entry CCOC(=O)C(CCc1ccccc1)NC(C)C(=O)N1Cc2cc(OC)c(OC)cc2CC1C(=O)O (centres undefined) — outcome?
False

Assay result, entry OCC1O[C@@H](O[C@@H]2C(CO)OC(O)C(O)C2O)C(O)C(O)C1O (some centres undefined) — outcome?
False

Assay result, entry C=CCn1c(=O)n(C2OC(CO)C(O)C2O)c2nc(N)[nH]c(=O)c21 (centres undefined) — outcome?
False

Assay result, entry CC(=O)C1(O)Cc2c(O)c3c(c(O)c2C(OC2CC(N)C(O)C(C)O2)C1)C(=O)c1c(O)cccc1C3=O (centres undefined) — outcome?
True

Assay result, entry CC[C@@H](C)C(N)C(=O)O (some centres undefined) — outcome?
False

----------
tested on: CP335; assay: qHTS profiling for inhibitors of Plasmodium falciparum proliferation (AID 504749); note: nearly all actives have a fitted effect of over 60% in size; conditions: P. falciparum in erythrocytes, SYBR Green DNA, 72 h; series mostly up to 28.7 µM
Records with an inconclusive call do not appear. Calls of active or inactive are those of the source. Calls follow the shape of the dose curve; as a rule, active = well fitted inhibition curve with a large enough effect; inconclusive = small, poorly fitted or top-dose-only effect; inactive = flat fitted curve, though single readings scatter.
Classes to choose from: True = active, False = inactive

Assay result, entry C=C1CCC(O)C/C1=C/C=C1\CCC[C@]2(C)[C@@H]([C@H](C)/C=C/[C@H](C)C(C)C)CC[C@@H]12 (stereo not given in full) — outcome?
False

Assay result, entry OCCOC[C@H]1O[C@H](OCCO)[C@H](OCCO)[C@@H](OCCO)[C@@H]1OCCO (tested in a mixture with another compound) — outcome?
False

Assay result, entry CC1=C(c2ccc(NN=C(C#N)C#N)cc2)NNC(=O)C1 — outcome?
False

Assay result, entry COc1cc(/C=C2\CCC/C(=C\c3ccc(O)c(OC)c3)C2=O)ccc1O — outcome?
True

Assay result, entry O=c1[nH]c(=O)n(C2C[C@H](O)[C@@H](CO)O2)cc1C(F)(F)F (stereo not given in full) — outcome?
False
